Each entry below carries its reported pIC50.
Measured On: Sodium-dependent dopamine transporter (Homo sapiens, UniProt Q01959)
Sequence (Q01959 whole entry): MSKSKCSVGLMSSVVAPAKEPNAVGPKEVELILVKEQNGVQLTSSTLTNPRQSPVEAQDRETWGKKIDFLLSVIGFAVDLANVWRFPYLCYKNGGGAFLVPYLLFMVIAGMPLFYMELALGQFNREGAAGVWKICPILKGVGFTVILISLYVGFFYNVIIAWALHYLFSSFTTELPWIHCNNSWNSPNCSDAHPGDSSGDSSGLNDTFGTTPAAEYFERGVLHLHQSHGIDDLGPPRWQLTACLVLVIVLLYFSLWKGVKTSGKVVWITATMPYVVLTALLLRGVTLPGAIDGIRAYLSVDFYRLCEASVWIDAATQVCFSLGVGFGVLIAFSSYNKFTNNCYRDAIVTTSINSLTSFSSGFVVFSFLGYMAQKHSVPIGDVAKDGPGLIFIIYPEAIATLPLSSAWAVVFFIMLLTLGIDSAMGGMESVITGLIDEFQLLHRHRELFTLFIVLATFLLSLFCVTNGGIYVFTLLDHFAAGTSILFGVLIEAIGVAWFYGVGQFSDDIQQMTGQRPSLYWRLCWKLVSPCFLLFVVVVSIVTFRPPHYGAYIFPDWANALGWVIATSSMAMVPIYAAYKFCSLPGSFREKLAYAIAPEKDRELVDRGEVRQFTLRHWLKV
Assay Summary: Inhibition of wild type human dopamine transporter expressed in HEK293 cells assessed as inhibition of [3H]dopamine reuptake preincubated for 5 mins followed by [3H]dopamine addition and measured after 1 min by liquid scintillation analysis
Format: cell-based
Stated Conditions: read-out: IC50
pIC50: −log10 of the molar value.

{"Compound": "Cc1ccc(C(c2ccc(C)cc2)[S+]([O-])Cc2cscn2)cc1 (stereo not drawn)", "Measured On": "Sodium-dependent dopamine transporter (Homo sapiens, UniProt Q01959)", "pIC50": 5.14}
{"Compound": "[O-][S+](Cc1cscn1)C(c1ccc(F)cc1)c1ccc(F)cc1 (stereo not drawn)", "Measured On": "Sodium-dependent dopamine transporter (Homo sapiens, UniProt Q01959)", "pIC50": 5.17}
{"Compound": "Cc1nc(CC[S+]([O-])C(c2ccccc2)c2ccccc2)cs1 (stereo not drawn)", "Measured On": "Sodium-dependent dopamine transporter (Homo sapiens, UniProt Q01959)", "pIC50": 4.21}
{"Compound": "Cc1cnc(C[S+]([O-])C(c2ccccc2)c2ccccc2)s1 (stereo not drawn)", "Measured On": "Sodium-dependent dopamine transporter (Homo sapiens, UniProt Q01959)", "pIC50": 4.18}
{"Compound": "Cc1nc(C)c(C[S+]([O-])C(c2ccccc2)c2ccccc2)s1 (stereo not drawn)", "Measured On": "Sodium-dependent dopamine transporter (Homo sapiens, UniProt Q01959)", "pIC50": 4.06}
{"Compound": "[O-][S@@+](Cc1cscn1)[C@H](c1ccccc1)c1ccc(Br)cc1", "Measured On": "Sodium-dependent dopamine transporter (Homo sapiens, UniProt Q01959)", "pIC50": 5.52}
{"Compound": "[O-][S+](Cc1csc(C2CC2)n1)C(c1ccccc1)c1ccccc1 (stereo not drawn)", "Measured On": "Sodium-dependent dopamine transporter (Homo sapiens, UniProt Q01959)", "pIC50": 5.39}
{"Compound": "Cc1ccc([C@@H](c2ccccc2)[S@@+]([O-])Cc2cncs2)cc1", "Measured On": "Sodium-dependent dopamine transporter (Homo sapiens, UniProt Q01959)", "pIC50": 5.22}
{"Compound": "COc1ccc([C@@H](c2ccccc2)[S@@+]([O-])Cc2cncs2)cc1", "Measured On": "Sodium-dependent dopamine transporter (Homo sapiens, UniProt Q01959)", "pIC50": 4.91}
{"Compound": "COc1ccc(C(c2ccc(OC)cc2)[S+]([O-])Cc2csc(C3CC3)n2)cc1 (stereo not drawn)", "Measured On": "Sodium-dependent dopamine transporter (Homo sapiens, UniProt Q01959)", "pIC50": 3.98}
{"Compound": "[O-][S+](Cc1nccs1)C(c1ccccc1)c1ccccc1 (stereo not drawn)", "Measured On": "Sodium-dependent dopamine transporter (Homo sapiens, UniProt Q01959)", "pIC50": 4.83}
{"Compound": "[O-][S@+](Cc1cncs1)C(c1ccc(Cl)cc1)c1ccc(Cl)cc1", "Measured On": "Sodium-dependent dopamine transporter (Homo sapiens, UniProt Q01959)", "pIC50": 4.42}
{"Compound": "CC(C)c1nc(C[S+]([O-])C(c2ccccc2)c2ccccc2)cs1 (stereo not drawn)", "Measured On": "Sodium-dependent dopamine transporter (Homo sapiens, UniProt Q01959)", "pIC50": 4.61}
{"Compound": "COc1ncc(C[S+]([O-])C(c2ccccc2)c2ccccc2)s1 (stereo not drawn)", "Measured On": "Sodium-dependent dopamine transporter (Homo sapiens, UniProt Q01959)", "pIC50": 4.14}
{"Compound": "[O-][S+](Cc1cscn1)C(c1ccccc1)c1ccc(Br)cc1 (racemic)", "Measured On": "Sodium-dependent dopamine transporter (Homo sapiens, UniProt Q01959)", "pIC50": 5.73}
{"Compound": "[O-][S+](Cc1csc(-c2cccs2)n1)C(c1ccccc1)c1ccccc1 (racemic)", "Measured On": "Sodium-dependent dopamine transporter (Homo sapiens, UniProt Q01959)", "pIC50": 5.16}
{"Compound": "[O-][S@+](Cc1cncs1)[C@@H](c1ccccc1)c1ccc(Br)cc1", "Measured On": "Sodium-dependent dopamine transporter (Homo sapiens, UniProt Q01959)", "pIC50": 4.65}
{"Compound": "[O-][S@@+](Cc1cncs1)[C@H](c1ccccc1)c1ccc(F)cc1", "Measured On": "Sodium-dependent dopamine transporter (Homo sapiens, UniProt Q01959)", "pIC50": 5.13}

====

Assay Summary: Plasma concentration in Sprague-Dawley rat at 7.5 mg/kg, ip compound dissolved in 40% Kolliphor-EL in water measured after 10 hrs by LC-MS/MS analysis
Assay type: ADME, organism-based
Parameter: concentration at 10 h

{"Input Smiles": "[O-][S@@+](Cc1cscn1)[C@@H](c1ccccc1)c1ccc(Br)cc1", "Parameter": "concentration at 10 h", "Experimental Value": "23.8 nM"}

====

Measured On: Sodium-dependent noradrenaline transporter (Homo sapiens, UniProt P23975)
Sequence (P23975 whole entry): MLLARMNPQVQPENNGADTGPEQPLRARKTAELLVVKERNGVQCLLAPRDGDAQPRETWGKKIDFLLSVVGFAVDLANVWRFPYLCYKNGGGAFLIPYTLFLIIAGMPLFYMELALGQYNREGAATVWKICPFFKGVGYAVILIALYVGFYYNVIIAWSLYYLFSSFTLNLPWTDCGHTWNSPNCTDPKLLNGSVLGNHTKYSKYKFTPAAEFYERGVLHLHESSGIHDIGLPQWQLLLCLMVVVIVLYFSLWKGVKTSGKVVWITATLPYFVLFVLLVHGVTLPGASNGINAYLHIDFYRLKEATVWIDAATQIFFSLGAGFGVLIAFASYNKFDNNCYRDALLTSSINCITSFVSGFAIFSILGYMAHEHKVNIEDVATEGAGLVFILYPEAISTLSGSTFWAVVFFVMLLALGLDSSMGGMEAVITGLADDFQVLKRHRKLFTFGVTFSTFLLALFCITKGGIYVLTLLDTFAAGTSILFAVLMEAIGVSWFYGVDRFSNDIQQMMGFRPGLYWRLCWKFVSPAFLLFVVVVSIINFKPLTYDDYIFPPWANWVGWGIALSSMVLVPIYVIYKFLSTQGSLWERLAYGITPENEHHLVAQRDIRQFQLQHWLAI
Assay Summary: Inhibition of wild type human NET expressed in HEK293 cells assessed as inhibition of [3H]-MPP+ reuptake preincubated for 5 mins followed by [3H]MPP+ addition and measured after 3 mins by liquid scintillation counting analysis
Format: cell-based
Stated Conditions: read-out: IC50
Quick rule for you: IC50 under 90 µM gets 1 (yes), anything else gets 0 (no).

{"Molecule": "[O-][S+](Cc1csc(C2CC2)n1)C(c1ccccc1)c1ccccc1 (stereo not given)", "Category": "0 (no)"}
{"Molecule": "COc1ncc(C[S+]([O-])C(c2ccccc2)c2ccccc2)s1 (stereo not given)", "Category": "0 (no)"}
{"Molecule": "Cc1ccc([C@@H](c2ccccc2)[S@+]([O-])Cc2cncs2)cc1", "Category": "1 (yes)"}
{"Molecule": "[O-][S+](Cc1cscn1)C(c1ccccc1)c1ccc(Br)cc1 (racemic)", "Category": "0 (no)"}
{"Molecule": "COc1ccc([C@@H](c2ccccc2)[S@+]([O-])Cc2cncs2)cc1", "Category": "0 (no)"}
{"Molecule": "[O-][S+](Cc1cncs1)C(c1ccc(F)cc1)c1ccc(F)cc1 (racemic)", "Category": "0 (no)"}
{"Molecule": "Cc1nc(CSC(c2ccccc2)c2ccccc2)cs1", "Category": "0 (no)"}
{"Molecule": "[O-][S@@+](Cc1cncs1)[C@H](c1ccccc1)c1ccc(F)cc1", "Category": "0 (no)"}
{"Molecule": "[O-][S@+](Cc1cncs1)[C@H](c1ccccc1)c1ccc(Cl)cc1", "Category": "1 (yes)"}
{"Molecule": "NC(=O)C[S@@+]([O-])C(c1ccccc1)c1ccccc1 [ARMODAFINIL]", "Category": "0 (no)"}
{"Molecule": "[O-][S+](Cc1csc(-c2cccs2)n1)C(c1ccccc1)c1ccccc1 (racemic)", "Category": "0 (no)"}
{"Molecule": "[O-][S@+](Cc1cscn1)[C@H](c1ccccc1)c1ccc(Br)cc1", "Category": "1 (yes)"}
{"Molecule": "[O-][S@@+](Cc1cncs1)[C@H](c1ccccc1)c1ccc(Br)cc1", "Category": "1 (yes)"}
{"Molecule": "Cc1ccc(C(c2ccc(C)cc2)[S+]([O-])Cc2cncs2)cc1 (racemic)", "Category": "0 (no)"}
{"Molecule": "[O-][S@@+](Cc1cscn1)[C@@H](c1ccccc1)c1ccc(Br)cc1", "Category": "1 (yes)"}
{"Molecule": "[O-][S@+](Cc1cncs1)[C@@H](c1ccccc1)c1ccc(Br)cc1", "Category": "0 (no)"}
{"Molecule": "[O-][S@@+](Cc1cncs1)[C@@H](c1ccccc1)c1ccc(F)cc1", "Category": "0 (no)"}
{"Molecule": "[O-][S@+](Cc1cncs1)[C@H](c1ccccc1)c1ccc(F)cc1", "Category": "0 (no)"}
{"Molecule": "[O-][S@@+](Cc1cncs1)[C@@H](c1ccccc1)c1ccc(Cl)cc1", "Category": "1 (yes)"}
